Numbers sourced from ChEMBL document CHEMBL3045171.

Record form. Attribute: inhibition in vivo at 25 mg/kg. Fill in for each entry.
tested on: Rattus norvegicus; assay: Anti-inflammatory activity in Rattus norvegicus albino (rat) assessed as inhibition of carrageenan-induced paw edema at 25 mg/kg, ip pretreated 30 min prior to carrageenan administration measured 1 hr after carrageenan challenge (reference value: 0%); format: functional; conditions: route intraperitoneal
Give your result in % as a bare value.

Qu. For the molecule COc1ccc(C2=NNCC2c2ccccc2)c(OC)c1 (stereo not given) , give its measured inhibition in vivo at 25 mg/kg value.
Ans. 0

Qu. Determine its reported inhibition in vivo at 25 mg/kg: COc1ccc(C2=NN(C(=O)NS(=O)(=O)c3ccc(Cl)cc3)CC2C)c(OC)c1 (stereo not given)
Ans. 12.2

Qu. State its inhibition in vivo at 25 mg/kg for this molecule: "CCOC(=O)c1nn(-c2ccccc2)c(-c2ccc(OC)cc2OC)c1-c1ccccc1"
Ans. 17.7

Qu. Retrieve inhibition in vivo at 25 mg/kg measured for Cc1ccc(-c2cc(C(F)(F)F)nn2-c2ccc(S(N)(=O)=O)cc2)cc1 [CELECOXIB] and print it.
Ans. 54.2

Qu. Look up inhibition in vivo at 25 mg/kg of COc1ccc(C2=NN(C(=O)NS(=O)(=O)c3ccc(C)cc3)CC2C)c(OC)c1 (stereo not given) and report it.
Ans. 23.7

Qu. Give inhibition in vivo at 25 mg/kg for COc1ccc(C2=NN(C(=O)NS(=O)(=O)c3ccc(Cl)cc3)CC2c2ccccc2)c(OC)c1 (stereo not given)
Ans. 24.1

Qu. State its inhibition in vivo at 25 mg/kg: "COc1ccc(-c2c(-c3ccccc3)c(C(=O)O)nn2-c2ccc(Cl)cc2)c(OC)c1"
Ans. 37

Qu. Kindly indicate its recorded inhibition in vivo at 25 mg/kg. Item: COc1ccc(C2=NN(C(=S)NC(=O)c3ccc(Cl)cc3)CC2c2ccccc2)c(OC)c1 (stereo not given)
Ans. 0

Qu. Quote inhibition in vivo at 25 mg/kg reported for "CCOC(=O)c1nn(-c2ccc(Cl)cc2)c(-c2ccc(OC)cc2OC)c1-c1ccccc1" please.
Ans. 6.89

Qu. Specify reported inhibition in vivo at 25 mg/kg for the molecule shown: "COc1ccc(C(=O)Cc2ccccc2)c(OC)c1"
Ans. 5.91

Qu. Read the entry CCOC(=O)C(=O)C(C(=O)c1ccc(OC)cc1OC)c1ccccc1 (stereo not given) and write its reported inhibition in vivo at 25 mg/kg.
Ans. 15.1

Qu. Please give the documented inhibition in vivo at 25 mg/kg of COc1ccc(C2=NN(C(=S)NC(=O)c3ccc(Cl)cc3)CC2C)c(OC)c1 (stereo not given)
Ans. 0

Qu. Provide only the value of recorded inhibition in vivo at 25 mg/kg for "COc1ccc(-c2c(C)c(C(=O)O)nn2-c2ccc(Cl)cc2)c(OC)c1"
Ans. 24.7

Qu. For the molecule "C=C(C)C(=O)c1ccc(OC)cc1OC" , give its reported inhibition in vivo at 25 mg/kg.
Ans. 23.7

Qu. Please report inhibition in vivo at 25 mg/kg for the following molecule: CCOC(=O)C(=O)C(C)C(=O)c1ccc(OC)cc1OC (stereo not given)
Ans. 23.7

----------
assay: Toxicity in ip dosed Mus musculus (mouse) after 24 hr; type: organism-based; settings: in vivo
parameter: LD50 at 24 h (mg/kg)
API: value field is a number in mg/kg; no unit string.

Qu. Check the records and state LD50 at 24 h for "COc1ccc(C(=O)Cc2ccccc2)c(OC)c1"
Ans. 278

Qu. Complete the entry with LD50 at 24 h for COc1ccc(C2=NN(C(=O)NS(=O)(=O)c3ccc(C)cc3)CC2C)c(OC)c1 (centres undefined)
Ans. 232

Qu. Identify measured LD50 at 24 h associated with "CCOC(=O)c1nn(-c2ccccc2)c(-c2ccc(OC)cc2OC)c1-c1ccccc1"
Ans. 292

Qu. // Input: COc1ccc(C2=NN(C(=O)NS(=O)(=O)c3ccc(Cl)cc3)CC2c2ccccc2)c(OC)c1 (centres undefined) . Output its LD50 at 24 h only.
Ans. 248
